# target.under.test: Human HDAC8 (Homo sapiens (Human), UniProt Q9BY41)
# Sequence (Q9BY41 whole entry): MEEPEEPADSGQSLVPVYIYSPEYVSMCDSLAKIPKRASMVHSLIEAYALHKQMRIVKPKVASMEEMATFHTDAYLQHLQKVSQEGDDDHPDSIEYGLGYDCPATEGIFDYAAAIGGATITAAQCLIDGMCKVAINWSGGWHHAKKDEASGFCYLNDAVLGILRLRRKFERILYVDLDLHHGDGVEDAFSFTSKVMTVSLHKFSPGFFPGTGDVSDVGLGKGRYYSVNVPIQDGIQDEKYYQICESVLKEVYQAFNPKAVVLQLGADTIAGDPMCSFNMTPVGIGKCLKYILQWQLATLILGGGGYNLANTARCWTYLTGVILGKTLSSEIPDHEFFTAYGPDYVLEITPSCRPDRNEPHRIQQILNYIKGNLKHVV
parameter: IC50

Reported IC50 of FC(F)c1nnc(-c2ccc(COc3cccc4ncccc34)nc2)o1 [Compound 63] : > 100 µM
